src = patent US20230183774A1

- Tested on: E. coli sample (positive blood culture)
- Experimental Details: ChroMIC automated colorimetric MIC assay directly from positive blood culture
- Format: cell-based
- Condition Context: Escherichia coli; real-time Bayesian updated MIC, 12 hour; read-out: MIC (12 hour)
- Procedure: In order to prepare the contrast agent, sterile human whole blood (ZenBio, Research Triangle Park, N.C.) was stored at 4° C. and used within two weeks. […] Relating to an example colorimetric AST directly from positive blood culture —BacT/ALERT FA PLUS positive blood cultures were 500-fold diluted in CAMHB media and dispensed in the 96-well plate antibiotic panels. […] ChroMIC ASTs were performed and compared (blinded) against both Vitek-2-determined MICs and vs. BMD. […]
Item-by-item account of MIC
Reply numerically in µg/mL, unit not repeated.

Below, each entry is followed by its recorded MIC result.
>>> reported("CC(C)(O/N=C(\\C(=O)N[C@@H]1C(=O)N2C(C(=O)[O-])=C(C[n+]3ccccc3)CS[C@H]12)c1csc(N)n1)C(=O)O [Ceftazidime, ceftazidime]")
0.125
>>> reported("NCC[C@H](O)C(=O)N[C@@H]1C[C@H](N)[C@@H](O[C@H]2O[C@H](CN)[C@@H](O)[C@H](O)[C@H]2O)[C@H](O)[C@H]1O[C@H]1O[C@H](CO)[C@@H](O)[C@H](N)[C@H]1O [Amikacin, amikacin]")
2

What the record says about NC[C@H]1O[C@H](O[C@H]2[C@H](O)[C@@H](O[C@H]3O[C@H](CO)[C@@H](O)[C@H](N)[C@H]3O)[C@H](N)C[C@@H]2N)[C@H](N)C[C@@H]1O [Tobramycin, tobramycin] : MIC is 1

----------
- Tested on: E. coli sample (positive blood culture)
- Experimental Details: ChroMIC automated colorimetric MIC assay directly from positive blood culture
- Assay type: cell-based
- Condition Context: Escherichia coli; real-time Bayesian updated MIC, 6 hour; read-out: MIC (6 hour)
In this section we review reported MIC values for a set of molecules.
Form entry: value (µg/mL) — number only.

>>> reported("NCC[C@H](O)C(=O)N[C@@H]1C[C@H](N)[C@@H](O[C@H]2O[C@H](CN)[C@@H](O)[C@H](O)[C@H]2O)[C@H](O)[C@H]1O[C@H]1O[C@H](CO)[C@@H](O)[C@H](N)[C@H]1O [Amikacin, amikacin]")
1
>>> reported("CC(C)(O/N=C(\\C(=O)N[C@@H]1C(=O)N2C(C(=O)[O-])=C(C[n+]3ccccc3)CS[C@H]12)c1csc(N)n1)C(=O)O [Ceftazidime, ceftazidime]")
0.25

Now, please, on to the next molecule.
// sample NC[C@H]1O[C@H](O[C@H]2[C@H](O)[C@@H](O[C@H]3O[C@H](CO)[C@@H](O)[C@H](N)[C@H]3O)[C@H](N)C[C@@H]2N)[C@H](N)C[C@@H]1O [Tobramycin, tobramycin] , its MIC was 0.5
